Numbers sourced from patent US20250144067A1.

Tested on: NCI-H292 lung cancer cells
method: FDA drug screening, complete media vs cholesterol-free media without statin (TABLE 1)
Format: cell-based, human
run-parameters: NCI-H292 cells, FDA drug library screen, complete media
Counter-ions that a name gives are not always drawn.
endpoint-name: Complete
Reply briefly: the number, and no unit.

Exam item: Look up Complete for this compound: CC12CC3CC(C)(C1)CC(N)(C3)C2 [Memantine (hydrochloride)]
Marked response: 0.656

Exam item: Continue with CCc1c2c(nc3ccc(OC(=O)N4CCC(N5CCCCC5)CC4)cc13)-c1cc3c(c(=O)n1C2)COC(=O)[C@]3(O)CC [Irinotecan (hydrochloride trihydrate)]
Marked response: 0.2808

Exam item: Continue with Cl.N[C@H]1C(O)O[C@H](CO)[C@@H](O)[C@@H]1O (stereo partly shown) [Glucosamine (hydrochloride)]
Marked response: 0.9464

Exam item: Continue with CCOC(=O)[C@H](CCc1ccccc1)N[C@@H](C)C(=O)N1[C@H](C(=O)O)C[C@H]2CCCC[C@@H]21 [Trandolapril]
Marked response: 0.9671

Exam item: Continue with `Cc1cc2nc3c(=O)[nH]c(=O)nc-3n(C[C@H](O)[C@H](O)[C@H](O)COP(=O)(O)OP(=O)(O)OC[C@H]3O[C@@H](n4cnc5c(N)ncnc54)[C@H](O)[C@@H]3O)c2cc1C`
Marked response: 0.8033

Exam item: Continue with C[C@](N)(Cc1ccc(O)cc1)C(=O)O [Metyrosine]
Marked response: 1.504

Exam item: Continue with NC[C@@H]1O[C@H](O[C@H]2[C@@H](O)[C@H](O[C@@H]3[C@@H](O)[C@H](N)C[C@H](N)[C@H]3O[C@H]3O[C@H](CN)[C@@H](O)[C@H](O)[C@H]3N)O[C@@H]2CO)[C@H](N)[C@@H](O)[C@@H]1O.O=S(=O)(O)O [Neomycin (sulfate)]
Marked response: 1.421

* * *

Test system: NCI-H292 lung cancer cells
method: FDA drug screening, complete media vs cholesterol-free media with simvastatin (TABLE 2)
Type: cell-based, human
run-parameters: NCI-H292 cells, cholesterol-free media with simvastatin 0.04 μM; cell growth value in FDA drug screen
Structures can show the parent of a compound that is named as a salt.
Range-based classes on measured Cholesterol-free media + simvastatin (0.04 μM): lower level = under 0.8, middle level = from 0.8 up to 1, upper level = 1 and over

Exam item: Band of `CC(C)N(CCCCOCC(=O)NS(C)(=O)=O)c1cnc(-c2ccccc2)c(-c2ccccc2)n1` ?
Marked response: middle level

Exam item: Continue with CCC(=O)OCC(=O)[C@@]1(OC(=O)CC)[C@@H](C)C[C@H]2[C@@H]3CCC4=CC(=O)C=C[C@]4(C)[C@@]3(F)[C@@H](O)C[C@@]21C [Betamethasone dipropionate]
Marked response: lower level

Exam item: Continue with Cc1ccsc1C(=CCCN1CCC[C@@H](C(=O)O)C1)c1sccc1C [Tiagabine (hydrochloride)]
Marked response: middle level

Exam item: Continue with C[C@@H]1C[C@H]2[C@@H]3CCC4=CC(=O)C=C[C@]4(C)[C@@]3(Cl)[C@@H](O)C[C@]2(C)[C@@]1(OC(=O)c1ccco1)C(=O)CCl [Mometasone furoate]
Marked response: lower level

Exam item: Continue with COC(=O)[C@H]1[C@H]2C[C@H]3c4[nH]c5ccccc5c4CCN3C[C@H]2CC[C@@H]1O [Rauwolscine (hydrochloride)]
Marked response: lower level

Exam item: Continue with NS(=O)(=O)c1cc2c(cc1Cl)N=C(CSCc1ccccc1)NS2(=O)=O [Benzthiazide]
Marked response: upper level

Exam item: Continue with `COC1=C(OC)C(=O)C(CCCCCCCCCCO)=C(C)C1=O`
Marked response: upper level

Exam item: Continue with `CCCc1nc2c(C)cc(-c3nc4ccccc4n3C)cc2n1Cc1ccc(-c2ccccc2C(=O)O)cc1`
Marked response: middle level

Exam item: Continue with `CCCCC1C(=O)N(c2ccccc2)N(c2ccccc2)C1=O`
Marked response: upper level

Exam item: Continue with `N[C@@H](Cc1c[nH]cn1)C(=O)O`
Marked response: upper level

Exam item: Continue with CO/N=C(\C(=O)N[C@@H]1C(=O)N2C(C(=O)OC(C)OC(C)=O)=C(COC(N)=O)CS[C@H]12)c1ccco1 (some centres unmarked)
Marked response: upper level

Exam item: Continue with `COc1nc2ccc(Br)cc2cc1[C@@H](c1ccccc1)[C@@](O)(CCN(C)C)c1cccc2ccccc12`
Marked response: upper level

Exam item: Continue with CC(O)c1cc(C(=O)N[C@@H](C)Cn2ccc(-c3ccc(C#N)c(Cl)c3)n2)[nH]n1 (some centres unmarked) [Darolutamide]
Marked response: middle level

Exam item: Continue with CC(C(=O)O)c1ccc2c(c1)[nH]c1ccc(Cl)cc12 (centres unmarked)
Marked response: middle level

Exam item: Continue with CCN[C@H]1CN(CCCOC)S(=O)(=O)c2sc(S(N)(=O)=O)cc21 [Brinzolamide]
Marked response: upper level

Exam item: Continue with `COc1cc2ncnc(Nc3ccc(F)c(Cl)c3)c2cc1NC(=O)/C=C/CN1CCCCC1`
Marked response: lower level

Exam item: Continue with CC(=O)O[C@H]1Cc2ccccc2N(C(N)=O)c2ccccc21 [Eslicarbazepine acetate]
Marked response: upper level

Exam item: Continue with CN1CC2c3ccccc3Oc3ccc(Cl)cc3C2C1 (centres unmarked) [Asenapine (hydrochloride)]
Marked response: upper level

Exam item: Continue with CC(=O)Oc1c(C)c(C)c2c(c1C)CCC(C)(CCC[C@H](C)CCC[C@H](C)CCCC(C)C)O2 (stereo partly drawn) [D-α-Tocopherol acetate]
Marked response: middle level

Exam item: Continue with `CN(C)C(=O)c1cc2cnc(Nc3ccc(N4CCNCC4)cn3)nc2n1C1CCCC1`
Marked response: lower level

Exam item: Continue with `NC[C@H]1O[C@H](O[C@H]2[C@H](O)[C@@H](O[C@H]3O[C@H](CO)[C@@H](O)[C@H](N)[C@H]3O)[C@H](N)C[C@@H]2N)[C@H](N)C[C@@H]1O`
Marked response: middle level
